Tested on: OVCAR-3
Assay: NCI tumour cell line growth inhibition, 48 h
Activity calls are given as the source filed them. No stated cut-off is given here; in the data, active = GI50 up to about 1.1 µM and inactive = higher.
Use one of these outcomes when replying: active, inactive

compound	category
O=[N+]([O-])c1ccc([I+]c2ccccc2)cc1	inactive
Cc1c(Cl)c(C)c(Cl)c(O)c1Cl	inactive
N#Cc1ccc2[nH]c3c(c2c1)CC(=O)Nc1ccccc1-3 [PAULLONE 2]	inactive
CCCCCCCCCN1CCC(=O)C(C(=O)OC)C1 (centres undefined)	inactive
CCOC(=O)N1c2c(ccn2C)-c2ccn(C)c2N1C(=O)OCC	inactive

Call for entry Cc1ccc(C)c2c1C/C(=C\c1ccccc1C(=O)O)C2=O : inactive

Call for entry COC(=O)CCCc1nc2ccccc2nc1/N=N/c1ccccc1 : inactive

Call for entry O=c1c2cc(-c3ccccc3)sc2nc2sc(-c3ccccc3)nn12 : inactive

Call for entry C(=N\c1ccc(-c2nc3ccccc3[nH]2)cc1)/c1ccco1 : inactive

Call for entry COc1ccc(/C=C2\CCC(C)C3C2=NN(c2ccccc2)C3c2ccc(OC)c(OC)c2)cc1OC (centres undefined) : inactive

###

Test system: A549
Test: NCI tumour cell line growth inhibition, 48 h
The source made the active and inactive calls. Rule as the data show it: active = GI50 up to about 1.1 µM and inactive = higher.
Use one of these outcomes when replying: true = active, false = inactive

molecule	system	category
c1ccc(-c2cc(-c3ccncc3)cc(-c3ccncc3)n2)cc1	A549	false
CCOC(=O)C1C(c2ccccc2)=C(c2ccccc2)C(c2ccccc2)=C1c1ccccc1	A549	false
CC1=NN(c2cccc(S(=O)(=O)O)c2)C2(C1)SCC(=O)N2c1nc2ccccc2s1 (stereo not drawn)	A549	false
Cc1csc(N/C=C2\C(=O)Oc3ccccc3C2=O)n1	A549	false
CN1CCN(CCSC2Cc3cc(Cl)ccc3Sc3ccccc32)CC1 (stereo not drawn)	A549	false

Call for entry CCC(C(=O)O)c1ccc(OCc2ccccc2)cc1 (stereo not drawn) : false

Call for entry NC(=S)N/N=C/C1NCCC2CCCCC21 (stereo not drawn) : true

Call for entry CC(C)(C)C1=C(Br)C(OC(=O)C(F)(F)F)(C(C)(C)C)OP1(=O)c1ccccc1 (stereo not drawn) : false

###

System: SN12C
Test: NCI tumour cell line growth inhibition, 48 h
Calls of active or inactive are those of the source. No stated cut-off is given here; in the data, active = GI50 up to about 1.1 µM and inactive = higher.
Use one of these outcomes when replying: active, inactive

compound	system	category
CCOc1ccc(NC2=NC(=O)C(CC(=O)Nc3ccc(Cl)cc3Cl)S2)cc1 (stereo not drawn)	SN12C	inactive
Oc1ccc(Cl)cc1CN1CCN(Cc2cc(Cl)ccc2O)C1	SN12C	active
CCC1(N=[N+]=[N-])C(=O)c2ccccc2N(c2ccccc2)C1=O (stereo not drawn)	SN12C	inactive
N#Cc1cc(-c2nc3c(F)cccc3s2)ccc1N	SN12C	inactive
O=[N+]([O-])c1ccc([I+]c2ccccc2)cc1	SN12C	inactive

Call for entry CCN(CC)CCCCC1CCN(CC(=O)N2c3cc(Cl)ccc3NC(=O)CC2C)CC1 (stereo not drawn) : inactive

Call for entry Clc1nc2c(-c3cccs3)ncnc2n1Cc1ccccc1 : inactive

Call for entry CCOc1ccccc1NC(=O)C1=C(C)NC(C)=C(C(=O)Nc2ccccc2OCC)C1c1ccc([N+](=O)[O-])cc1 : inactive

###

Tested on: NCI/ADR-RES
Assay: NCI tumour cell line growth inhibition, 48 h
The source made the active and inactive calls. Cut-off read from the data, not from the text of the source: active = GI50 up to about 1.1 µM and inactive = higher.
Use one of these outcomes when replying: TRUE for active, FALSE for inactive

Call for entry CCCCCCCCCN1CCC(=O)C(C(=O)OC)C1 (centres undefined) : FALSE

Call for entry COc1ccc2c(c1)/c(=C/C#N)c1c3ccccc3[n+](C)n21 : FALSE

Call for entry S=C1NC(c2ccccc2)NC(c2ccccc2)S1 (centres undefined) : FALSE

Call for entry CN(C)CCOc1ccc2[nH]c(C(=O)N3CC(CCl)c4ccc(N)cc43)cc2c1 (centres undefined) : TRUE

Call for entry COC(=O)C1(N2CCOCC2)CCC([C@@H](c2ccccc2)C(C)[N+](=O)[O-])C1 (some centres undefined) : FALSE

Call for entry COc1cc(C2S/C(=C/c3ccccc3)C(=O)N2c2cc(Cl)ccc2Cl)cc(OC)c1OC (centres undefined) : FALSE

Call for entry COc1cc2c3c(c1OC)C1(C=CC(=O)C=C1)CC3NCC2 (centres undefined) : FALSE

Call for entry CC(O)CN1c2ccccc2Sc2ccccc21 (centres undefined) : FALSE

Call for entry CN(C)CCCn1c2c3ccccc3ccc2c2oc(=O)c3ccccc3c21 : FALSE
